Test Description: CCTE_Mundy_HCI_Cortical_Synap_Neur_Matur_NeuriteLength: CCTE's Synaptogenesis and Neurite Maturation Assay in rat cortical cells for Neurite Length, Mundy Lab (AID 2284214)
Active and inactive are the calls of the source. How the source made its calls: active means hit-call score of the fitted dose curve at least 0.9, where 1 is the maximum; inactive means score below 0.9.
# valid calls are active, inactive; nothing else

Solved cases (5 shown):
[ask] So what was the verdict on `COC(=O)N(OC)c1ccccc1COc1ccn(-c2ccc(Cl)cc2)n1` in this test?
[reply] active

[ask] // outcome(item) with item = `CN(C)C(=S)SSC(=S)N(C)C`
[reply] active

[ask] Short answer needed: outcome of this test for `COP(=S)(OC)Oc1nc(Cl)c(Cl)cc1Cl` ?
[reply] active

[ask] Called result for `CCCCNC(=O)n1c(NC(=O)OC)nc2ccccc21`
[reply] active

[ask] Look up the recorded call for C=CCC1=C(C)C(OC(=O)C2C(C=C(C)C)C2(C)C)CC1=O (stereo not drawn) in this test.
[reply] inactive

Continuing:
[ask] Lab log entry: C=CC1(C)OC(=O)N(c2cc(Cl)cc(Cl)c2)C1=O (stereo not drawn) — outcome as called in the assay?
[reply] inactive

[ask] Fill in: this test's call for `CNC(=O)ON=CC(C)(C)SC` is ___
[reply] inactive

[ask] State the result this test recorded for `C=CCC1=C(C)[C@@H](OC(=O)[C@@H]2[C@@H](C=C(C)C)C2(C)C)CC1=O` .
[reply] active
